System: SF-539 CNS
method: NCI tumour cell line growth inhibition, 48 h
Exercise: for every item that follows, state its recorded log10 TGI.
The figures below represent log10 of TGI, where TGI is stated in µM.

Reported log10 TGI ( O=C(CN1CCCC1)Nc1ccc2c(c1)C1Oc3ccccc3CC1CO2 (stereo not given) ) = 1.60

Reported log10 TGI ( CC(C)NC(=O)OCCN=C1c2ccccc2C(Br)C(Br)c2ccccc21 (stereo not given) ) = 0.98

Reported log10 TGI ( O=C(Cc1csc2nc(-c3ccc(Br)cc3)cn12)N/N=C/c1ccccc1O ) = 1.07

Reported log10 TGI ( C#CCN(CCCOc1ccc(Cl)cc1Cl)CCCSC(=O)CCCCCN1/C(=C\C=C2/CCCC(/C=C/C3=[N+](CCCCCC(=O)[O-])c4ccccc4C3(C)C)=C2Cl)C(C)(C)c2ccccc21 ) = 0.43

Reported log10 TGI ( CC(C)(C)c1cc(C(C)(C)C)c2sc(=O)oc2c1O ) = 1.49

Reported log10 TGI ( N=C(N)c1ccc(N=Nc2c(O)c(C(=O)Nc3ccccc3)cc3ccccc23)cc1 ) = 1.63

Reported log10 TGI ( COc1cc(-c2ccc[nH]2)[nH]c1/C=C1\N=C(C)C(C(=O)NC(C)C)=C1C ) = 1.31

Reported log10 TGI ( COc1ccc2c3c(c4cc(OC)c(OC)cc4c2c1)CN1CCC[C@H]1[C@@H]3O ) = -0.08

Reported log10 TGI ( COc1ccc(C2CC(c3cccc(Nc4ccncc4)c3)=NN2c2ccccc2)cc1 (stereo not given) ) = 0.48

Reported log10 TGI ( Cc1c(C(=O)/C=C/c2ccc3c(c2)OCO3)[n+](=O)c2ccccc2n1[O-] ) = 1.69
